Data credit: PubChem BioAssay (NCI)

Tested on: BT-549 breast
ASSAY_SUMMARY: NCI-60 one-dose screen, 48 h (100 = growth as untreated, 0 = no growth, -100 = all killed)
RUN_CONDITIONS: 10 µM unless noted
The panel holds about 83,000 compounds, 20% with a hit somewhere; the sample as a whole holds those more often.
Mark satisfied only when growth stays strictly below 90%. Values equal to the cut-off are not satisfied.

- COMPOUND: "COc1cccc(-c2nc3sccn3c2-c2ccnc(NCCNS(=O)(=O)c3ccccc3)n2)c1"
  CATEGORY: "satisfied"
- COMPOUND: "COc1ccc(/C=C(\\C#N)c2ccc([N+](=O)[O-])cc2)c2ccccc12"
  CATEGORY: "satisfied"
- COMPOUND: "Clc1ccc(/C=C/c2nc(N3CCOCC3)c3nc(Cl)c(Cl)cc3n2)cc1"
  CATEGORY: "not satisfied"
- COMPOUND: "O=C1CCCCN1CCCCC#Cc1ccccc1C#Cc1ccc([N+](=O)[O-])cc1"
  CATEGORY: "satisfied"

Field: next compound
Is it true that growth reported for NC(CC(N)C(=O)O)C(=O)O (configuration not stated) is less than 90%?
not satisfied

----------
Tested on: NCI-H460 lung
ASSAY_SUMMARY: NCI-60 one-dose screen, 48 h (100 = growth as untreated, 0 = no growth, -100 = all killed)
RUN_CONDITIONS: 10 µM unless noted
The panel holds about 83,000 compounds, 20% with a hit somewhere; the sample as a whole holds those more often.
Reported values of growth for individual entries
# unit: % | format: bare number

// fetch growth; item: `NC(=O)c1c(NC(=O)c2ccc3c(c2)OCO3)sc2c1CCC(=O)C2` ; system: NCI-H460 lung
3.04

Report growth from NCI-H460 lung testing of `O=C1C2=C(C(=O)c3c(O)ccc(O)c31)N(c1cccnc1)Cc1ccccc1O2`
7.48

Under NCI-H460 lung, report growth for `COc1cc(/C=C/C(=O)c2ccccc2O)ccc1OCCCOc1cc2c(cc1OC)C(=O)N1CCC[C@H]1C=N2`
-18.1

System NCI-H460 lung. Read-out growth. Item `O=P([O-])(O)OP(=O)([O-])O.[NH-][C@H]1CCCC[C@@H]1[NH-].[OH-].[OH-].[Pt+4]` . Report value.
106

State growth on NCI-H460 lung. Entry: `COc1ccc(Cn2c(SC)nc(=O)n(Cc3ccc(Cl)cc3)c2=O)cc1`
103

Please report the measured growth for `COc1cc(Cn2c(SCC(=O)Nc3ccc(Cl)cc3)nc3ccccc3c2=O)cc(OC)c1OC` tested on NCI-H460 lung.
17.7

----------
Tested on: OVCAR-4 ovarian
ASSAY_SUMMARY: NCI-60 one-dose screen, 48 h (100 = growth as untreated, 0 = no growth, -100 = all killed)
RUN_CONDITIONS: 10 µM unless noted
About 83,000 compounds went through this panel and 20% of them were active in at least one assay; those are over-represented in the sample as a whole.
MEASURED_METRIC: growth (%)
# output: bare number, implied unit %

Field: example entries. Status: answers known.
- COMPOUND: "COC(=O)c1ccc(C)cc1"
  VALUE_UNITS: "%"
  growth: 105
- COMPOUND: "CC(CCc1ccccc1)NC(=O)c1n[nH]c(=O)c2ccccc12 (configuration not stated)"
  VALUE_UNITS: "%"
  growth: 102
- COMPOUND: "Cc1cc(Nc2nc(-c3ccncc3)nc3ccccc23)n[nH]1"
  VALUE_UNITS: "%"
  growth: 52.4
- COMPOUND: "Cc1ccc(C(=O)c2sc3nc4c(cc3c2N)CCCC4)c(C)c1"
  VALUE_UNITS: "%"
  growth: 39.8
- COMPOUND: "COc1ncc(-c2ccc3ncnc(Nc4cccc(Cl)c4)c3c2)cc1N(S(C)(=O)=O)S(C)(=O)=O"
  VALUE_UNITS: "%"
  growth: 77.3

Okay, now this compound:
Answer with the recorded growth of `COc1cc2c(cc1OCCCCn1c(-c3cc(=O)c4ccccc4o3)nc3ccccc31)N=C[C@@H]1CCCN1C2=O` only.
108
